- SETUP_CONDITIONS: 308.15 K; 5000 kPa; Liquid; Vibrating tube method
REPORTED_METRIC: mass density (kg/m3)

Consider the reported mass density for these compounds:
                          compound  numeric_value
0  CCOC(=O)OCC [diethyl carbonate]          962.4
1                         CCCCCCCC            695

A = COC(=O)OC [dimethyl carbonate]
B = CCCCCCCCCC
INPUT: Pick one: A or B . Which has the bigger mass density number? Field: selected label. Fill in the label of the entry you choose.
OUTPUT: A
(A: 1054.6 kg/m3, B: 722.4 kg/m3)

The measured values listed here are drawn from the NIST ThermoML archive (doi:10.1016/j.jct.2012.11.011).
